The origin of these recorded values is PubChem BioAssay AID652105.

Biological target: Phosphatidylinositol 5-phosphate 4-kinase type-2 alpha (Homo sapiens) (UniProt P48426)
Sequence (P48426 whole entry, looked up): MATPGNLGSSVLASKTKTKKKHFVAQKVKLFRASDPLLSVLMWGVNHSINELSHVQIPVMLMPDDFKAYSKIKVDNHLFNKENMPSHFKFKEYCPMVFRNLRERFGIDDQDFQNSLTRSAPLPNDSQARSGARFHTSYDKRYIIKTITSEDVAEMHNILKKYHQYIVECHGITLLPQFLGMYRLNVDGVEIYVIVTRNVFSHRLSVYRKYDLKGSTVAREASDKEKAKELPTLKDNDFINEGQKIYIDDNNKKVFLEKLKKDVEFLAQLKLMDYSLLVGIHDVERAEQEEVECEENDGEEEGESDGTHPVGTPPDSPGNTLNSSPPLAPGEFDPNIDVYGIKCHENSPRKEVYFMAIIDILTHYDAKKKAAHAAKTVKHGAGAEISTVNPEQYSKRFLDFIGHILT
Assay: qHTS for Inhibitors of phosphatidylinositol 5-phosphate 4-kinase (PI5P4K); further: value at the top dose of about 77 µM; on the % scale 0 is the no-effect control and ±100 the full control effect
Conditions: PI5P4Kalpha enzyme, ADP-Glo luminescence, 60 min
The campaign covered roughly 330,000 compounds. About 4,100 (1.2%) were called active. Another 2% or so got no clear call; they are omitted. How the source made its calls: active means max response of -50% or lower; inconclusive means between -30% and -50%; inactive means -30% or higher. Shown is part of a subset that was picked to be rich in actives.
Possible outcomes: 1.0 = active, 0.0 = inactive

1) CCOC(=O)C1Nc2ccc(C(F)(F)F)cc2C2C=CCC12 (centres undefined) = 1.0
2) CC(=O)N(C1=C(Cl)C(=O)c2ccccc2C1=O)c1ccc(C(=O)O)cc1 = 1.0
3) CCOC(=O)C[C@H]1c2ccc(C(F)(F)F)cc2S(=O)(=O)N1c1ccccc1 = 0.0
4) CC(C)[C@H](NC(=O)c1ccccc1F)C(=O)Nc1cccc(S(=O)(=O)N2CCOCC2)c1 = 0.0

###

Target: Phosphatidylinositol 5-phosphate 4-kinase type-2 alpha (Homo sapiens) (UniProt P48426)
Assay: qHTS for Inhibitors of phosphatidylinositol 5-phosphate 4-kinase (PI5P4K); further: value at the top dose of about 77 µM; on the % scale 0 is the no-effect control and ±100 the full control effect
Conditions: PI5P4Kalpha enzyme, ADP-Glo luminescence, 60 min; active compounds read low
Hit rate of the full screen: of about 330,000 compounds, about 4,100 (1.2%) were called active. Roughly 2% stayed inconclusive and do not appear here. Many of the other results were omitted from the sample, so actives are more common in it than they were.
MEASURED_ENDPOINT: max response (%)

1) O=[N+]([O-])c1cc(Cl)cc(/C=N/NC(=S)Nc2cc(S(=O)(=O)N3CCOCC3)ccc2Cl)c1O = -78.8
2) CCC(=O)NC(=Nc1nc2ccccc2s1)NC(=O)CC = 10.4
3) CC(=O)N1c2ccc(S(=O)(=O)NCCC(=O)N(C)C3CCCCC3)cc2CC1C (stereo unspecified) = -54.5
4) O=c1[nH]c(=O)n(Cc2ccco2)c2c1C(C(F)(F)F)(C(F)(F)F)N=C(c1ccco1)N2 = -76.9
5) COC(=O)[C@]12CCCCC=C1N(CCC1=CCCCC1)C(=O)[C@H](CC(=O)NCC1CCCCC1)C2 = 7.3
6) CN(C)/N=C/c1cc(Cl)cc([N+](=O)[O-])c1O = -13.3
7) CCCNC(=O)C1(C)CCN(Cc2ccc(Cl)c(Cl)c2)C1 (stereo unspecified) = 6.81
8) C[C@H]1CN(c2ccc(Br)cc2)C(=O)[C@@H]1CC(=O)Nc1ccc(Br)cc1 = -1.71
9) O=C1NC[C@H](CCCCN2C[C@H](Cc3ccc(O)cc3)N(CCc3ccccc3)C(=O)C2=O)N(CCc2ccccc2)C1=O = -2.29
10) Nc1ncnc2c1ncn2[C@@H]1O[C@H](C(=O)NS(=O)(=O)c2c(Cl)nc3sccn23)[C@@H](O)[C@H]1O = -5.36
11) CN(Cc1cn(Cc2ccc(C(F)(F)F)cc2)nn1)C1CN(Cc2cn(Cc3ccc(C(F)(F)F)cc3)nn2)S(=O)(=O)C1 (stereo unspecified) = 11.5
12) CC(C)(C)C1CCC(=O)N2CCC[C@]2(c2ccccc2)C1 (stereo partly specified) = -0.325
13) Cc1ccc(C(=O)N2CCCc3ccccc32)c(Cl)c1 = 0.412
14) CC(=O)c1cc(-c2ccccc2)[nH]c1N1CCCC1 = -3.68
15) Cc1ccc(N=Cc2c(O)cc(C)oc2=O)c(C)c1 = -7.86
16) CCOc1ccc(-n2c(O)c(/C=N/Nc3nnc(C)c(=O)[nH]3)c3ccccc3c2=O)cc1 = -64
